Target: nociceptin receptor ORL1 (Homo sapiens)
Assay: Antagonism against nociceptin-elicited G protein activation (GTPγ[35S] binding, CHO/ORL1 membranes)
Assay type: biochemical
Design: expressed in transfected cells; membrane preparation
Conditions: CHO/ORL1 membrane, 50 nM nociceptin, 200 pM GTPγ[35S], 25° C., 150 minutes
readout-name: pIC50
// scale note: pIC50 = -log10(conc_M); give the bare number

// query Which value of pIC50 has been reported for COCc1c(CN[C@H]2CC[C@@H](OC)CC2)n[nH]c1-c1cc(F)cc(F)c1 in the records?
// result 9.22

// query Proceed to CCc1c(CN[C@H]2CC[C@@H](F)CC2)nc(C)n1-c1cc(F)cc(F)c1
// result 8.22

// query Proceed to Cc1ncc(-c2c(C)c(CN[C@H]3CC[C@@H](F)C3)nn2C(C)C)cc1F
// result 9.21

// query Proceed to COCc1c(CN[C@H]2CC[C@@H](F)C2)n[nH]c1-c1cc(F)cc(F)c1
// result 9.33

// query Proceed to Cc1c(CN[C@H]2CC[C@@H](F)C2)nn(CCC#N)c1-c1cc(F)cc(F)c1
// result 8.34

// query Proceed to Cc1c(CN[C@H]2CC[C@@H](F)C2)n[nH]c1-c1cc(F)cc(F)c1
// result 8.12

---

Target: nociceptin receptor ORL1 (Homo sapiens, UniProt P41146)
Sequence (P41146 whole entry): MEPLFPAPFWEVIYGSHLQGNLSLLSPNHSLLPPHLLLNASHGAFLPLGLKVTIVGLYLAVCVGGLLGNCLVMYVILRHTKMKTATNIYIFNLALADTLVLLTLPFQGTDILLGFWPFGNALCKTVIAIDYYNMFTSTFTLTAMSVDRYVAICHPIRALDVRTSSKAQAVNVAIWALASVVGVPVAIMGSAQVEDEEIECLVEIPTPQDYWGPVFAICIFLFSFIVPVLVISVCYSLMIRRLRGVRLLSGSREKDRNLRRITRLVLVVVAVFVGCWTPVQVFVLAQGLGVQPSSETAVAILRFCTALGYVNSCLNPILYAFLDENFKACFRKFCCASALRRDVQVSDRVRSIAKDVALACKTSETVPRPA
Assay: Nociceptin receptor binding inhibition assay ([125I]Tyr14-Nociceptin, CHO/ORL1 membrane fractions, SPA)
Set-up: expressed in transfected cells; membrane fractions
Settings: CHO/ORL1 membrane fraction, 50 pM [125I]Tyr14-Nociceptin, 37° C., 60 minutes
readout-name: pIC50
// scale note: pIC50 = -log10(conc_M); give the bare number

// query Which value of pIC50 has been reported for Cc1c(CN[C@H]2CC[C@@H](F)C2)n[nH]c1-c1cc(F)cc(F)c1 in the records?
// result 8.12

// query Proceed to Cc1ncc(-c2c(C)c(CN[C@H]3CC[C@@H](F)C3)nn2C(C)C)cc1F
// result 9.04

// query Proceed to Cc1c(CN[C@H]2CC[C@@H](F)C2)nn(CCC#N)c1-c1cc(F)cc(F)c1
// result 8.09

// query Proceed to CCc1c(CN[C@H]2CC[C@@H](F)CC2)nc(C)n1-c1cc(F)cc(F)c1
// result 8.17

// query Proceed to COCc1c(CN[C@H]2CC[C@@H](OC)CC2)n[nH]c1-c1cc(F)cc(F)c1
// result 8.96

// query Proceed to COCc1c(CN[C@H]2CC[C@@H](F)C2)n[nH]c1-c1cc(F)cc(F)c1
// result 9.21

meta.source: patent US7829586B2
